Test system: MS2 coat protein
Experiment: apparent KD of MS2 coat protein; designed switch direction (-1 OFF switch, 1 ON switch): -1; higher = weaker reporter binding
Settings: Eterna round: R98; input ligand: FMN 200 uM
endpoint.name: apparent KD of MS2 coat protein

• AGACUCAGAUGGUGCCAGCUUGCACAUGAGGAUCACCCAUGUCAGGAUAUCUUCGCUCCGGGAGAAGAGAAGGGACAAGAAAUU [Anenan] = 0.165 µM
• UCGAACGGAAACAAAGUCAAUAGACAUGAGGAUCACCCAUGUAAGGAUAUGCCUACUAAAAGUAGGCAGAAGGUACGCGUUCGA [Contusion 5 - Jieux - Exclusion NG 3] = 0.0272 µM
• GUCAGGAAUGUAGGAUAUCGUCAGGAAUACUGGCGAGAAGGACAUGAGGAUCACCCAUGUAAAAUGAAAGAUAAUAAACCUGGC [Exclsuion NG 1/2-C1] = 0.0319 µM
• GCGGGAUGAGUCGUUGGUUCACAUGAGGAUCACCCAUGUAGGGAGGAUAUGCAUCUGGUCCCGGAGCAGAAGGCCCUGCAUCGA [Raedxea] = 1.54 µM
• CCGGGCCCGGGAGGAUAUACAUGAGGAUCACCCAUGUAUUCUCGGCCCGGCGAAAGCCGGGCCAUGUAGAAGGCCCGGGCCCGG [high melting point] = 0.103 µM
• CACCGUUACAGAGGAUAUGACACAUGAGGAUCACCCAUGUAAUAAAUGAGAAUUUCGAAUGUAACUCAGAAGGCUGGAAUCGGC [JieuxMod 1 - Jieux - Exclusion NG 2] = 0.0616 µM
